These entries and their values trace back to the RNAGym collection of RNA variant scans (doi:10.1002/anie.201605470).

Recorded self-cleavage values for a group of variants are listed next.
B1: Osa-1-4 twister ribozyme (parent)
chain: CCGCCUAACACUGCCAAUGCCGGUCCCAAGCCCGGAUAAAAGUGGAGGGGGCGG

# Variants of: B1
# experiment: self-cleavage, relative activity (ratio to wild type); higher = more cleavage; co-transcriptional

Examples from the recorded data:
# variant_description, self-cleavage
rows = [
    ("A40C A41G", 0.1),
    ("G22A U43G", 0.1),
]

Consider the additional variant presented here.
Need self-cleavage, item G19U G44A
0.1
